Test: in vitro
Settings: human, hela cells, % viability
I'd be grateful if you could share measured viability at 28.5 h, 10 µM for these entries.
All answers are understood in %, so give the number only.

Prompt line: What does the record list as viability at 28.5 h, 10 µM for CCC(Sc1nccn1C)C(=O)Nc1ccc(S(N)(=O)=O)cc1 (stereo not drawn) ?
Response line: 107

Prompt line: Item under review: COc1ccccc1CCC(=O)NCc1cnc(SC)n1C . Reported viability at 28.5 h, 10 µM?
Response line: 85.9

Prompt line: Given O=C(COc1cccc2ccccc12)Nc1ccc(O)cc1 , state its recorded viability at 28.5 h, 10 µM.
Response line: 88.6

Prompt line: Tell me the measured viability at 28.5 h, 10 µM of Cn1c(=O)[nH]c(=O)c2c1nc(CN1CCOCC1)n2Cc1ccc(F)cc1 , please.
Response line: 99.2

Prompt line: Recorded viability at 28.5 h, 10 µM of CCn1cc(-c2cncn2C(CCN(C)C)c2ccccc2)cn1 (stereo not drawn) , please.
Response line: 79.2

Prompt line: Returns the measured viability at 28.5 h, 10 µM for the input compound. Input: NC(=S)N1N=C2CCCCC2C1c1ccccc1 (stereo not drawn)
Response line: 84.2

Prompt line: For the compound CC(=O)NC1(c2ccccc2F)CCN(c2ncc(-c3ccco3)c(-c3ccco3)n2)CC1 , what viability at 28.5 h, 10 µM is on record?
Response line: 95.3

Prompt line: Could you share which viability at 28.5 h, 10 µM value was measured for N#Cc1c(Oc2cccc(Cl)c2Cl)cccc1C(F)(F)F ?
Response line: 91.1

Prompt line: Reported viability at 28.5 h, 10 µM, compound Cc1ccc(-c2csc3c(=O)[nH]c(N4CCC5(CC4)OCCO5)nc23)cc1 : ____
Response line: 83.9

Prompt line: GET /values?readout=viability at 28.5 h, 10 µM&item= CC1NCCc2c1sc1ccccc21 (stereo not drawn) [CBK026032C]
Response line: 100

Prompt line: Entry under review: CCc1nc2ccc(C(=O)N(C)CCN(C)C)cn2c1N(C)C(=O)C1CCCCC1 . Reported viability at 28.5 h, 10 µM?
Response line: 93.8

Prompt line: Name the recorded viability at 28.5 h, 10 µM for CC(C)CCN(C)C(=O)c1cccc(S(=O)(=O)NCc2ccsc2)c1 .
Response line: 110
